// reported IC50 per item
- targetSystem: Potassium voltage-gated channel subfamily A member 3 (Homo sapiens)
- Sequence (P22001 whole entry): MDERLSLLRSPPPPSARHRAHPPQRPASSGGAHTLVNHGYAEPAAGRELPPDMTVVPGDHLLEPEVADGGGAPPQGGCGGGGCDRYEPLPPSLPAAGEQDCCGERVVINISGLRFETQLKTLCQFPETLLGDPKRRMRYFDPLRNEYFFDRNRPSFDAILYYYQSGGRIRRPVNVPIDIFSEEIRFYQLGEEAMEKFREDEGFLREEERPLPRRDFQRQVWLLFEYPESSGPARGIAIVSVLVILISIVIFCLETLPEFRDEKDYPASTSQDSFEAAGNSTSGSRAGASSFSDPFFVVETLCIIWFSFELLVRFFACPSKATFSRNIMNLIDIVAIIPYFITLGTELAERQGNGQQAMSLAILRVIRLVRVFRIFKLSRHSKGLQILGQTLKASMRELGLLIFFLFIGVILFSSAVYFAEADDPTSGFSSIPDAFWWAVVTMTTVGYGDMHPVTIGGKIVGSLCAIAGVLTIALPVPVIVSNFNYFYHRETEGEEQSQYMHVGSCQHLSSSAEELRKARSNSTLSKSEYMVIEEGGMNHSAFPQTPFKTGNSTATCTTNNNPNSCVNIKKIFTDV
- protocolSummary: Inhibition of voltage-gated potassium channel subunit Kv1.3 in chinese hamster ovary cells
- Format: functional, cell-based

# molecule, IC50
measured = [
    ("CC(=O)O[C@H]1C2[C@@](C)(CCC3C(O)(CCc4ccccc4C)C(C)=C[C@@H](OC(C)=O)[C@@]32C)C2C=CCOC[C@]2([C@@H](C)OC(C)=O)[C@H]1OC(C)=O (stereo not given in full)", "41 nM"),
    ("CCc1ccccc1[C@H](CC)CC1(O)C(C)=C[C@@H](OC(C)=O)[C@@]2(C)C1CC[C@]1(C)C2[C@H](OC(C)=O)[C@H](OC(C)=O)[C@@]2([C@@H](C)OC(C)=O)COCC=CC12 (stereo not given in full)", "12 nM"),
    ("COc1ccccc1CCC1(O)C(C)=C[C@@H](OC(C)=O)[C@@]2(C)C1CC[C@]1(C)C2[C@H](OC(C)=O)[C@H](OC(C)=O)[C@@]2([C@@H](C)OC(C)=O)COCC=CC12 (stereo not given in full)", "14 nM"),
    ("CC(=O)O[C@H]1C2[C@@](C)(CCC3C(O)(CCCc4ccccc4)C(C)=C[C@@H](OC(C)=O)[C@@]32C)C2C=CCOC[C@]2([C@@H](C)OC(C)=O)[C@H]1OC(C)=O (stereo not given in full)", "150 nM"),
]

q: Would you kindly share the measured IC50 for C=C(CC1(O)C(C)=C[C@@H](OC(C)=O)[C@@]2(C)C1CC[C@]1(C)C2[C@H](OC(C)=O)[C@H](OC(C)=O)[C@@]2([C@@H](C)OC(C)=O)COCC=CC12)c1ccccc1SC (stereo not given in full) ?
a: 14 nM
